Test system: PfUGT50
TEST_METHOD_NOTES: UDP-glucuronosyltransferase activity assay (HPLC) with recombinant PfUGT50
Assay type: biochemical, Perilla frutescens
APPLIED_CONDITIONS: 100 μM glycosyl acceptor substrate, 2 mM UDP-glucuronic acid, pH 7.5, 30° C., 30 minutes
Assign 1.0 whenever relative activity to each substrate, taking the activity to scutellarein as 100% does not fall below 40%; assign 0.0 whenever it does.

SMILES | CLASSIFICATION
O=c1c(O)c(-c2ccc(O)cc2)oc2cc(O)cc(O)c12 | 0.0
O=C1C[C@@H](c2ccc(O)cc2)Oc2cc(O)cc(O)c21 | 0.0
O=c1cc(-c2ccccc2)oc2cc(O)c(O)c(O)c12 | 1.0
COc1ccc(-c2cc(=O)c3c(O)cc(O)cc3o2)cc1O | 1.0

###

Test system: SiUGT23
TEST_METHOD_NOTES: UDP-glucuronosyltransferase activity assay (HPLC) with recombinant SiUGT23
Assay type: biochemical, Sesamum indicum
APPLIED_CONDITIONS: 100 μM glycosyl acceptor substrate, 2 mM UDP-glucuronic acid, pH 7.5, 30° C., 30 minutes
READOUT_KIND: relative activity to each substrate, taking the activity to scutellarein as 100% (%)

SMILES | READING_UNIT | OBS_VALUE
O=C1C[C@@H](c2ccc(O)cc2)Oc2cc(O)cc(O)c21 | % | 2
O=c1cc(-c2cc(O)c(O)c(O)c2)oc2cc(O)cc(O)c12 | % | 14.0
O=c1cc(-c2ccc(O)cc2)oc2cc(O)cc(O)c12 | % | 7
O=c1cc(-c2ccccc2)oc2cc(O)c(O)c(O)c12 | % | 24
COc1ccc(-c2cc(=O)c3c(O)cc(O)cc3o2)cc1O | % | 4
O=c1c(O)c(-c2ccc(O)c(O)c2)oc2cc(O)cc(O)c12 | % | 4
O=c1ccc2cc(O)c(O)cc2o1 | % | 0.03
COc1cc(-c2cc(=O)c3c(O)cc(O)cc3o2)ccc1O | % | 6
O=c1cc(-c2ccc(O)c(O)c2)oc2cc(O)cc(O)c12 | % | 29
O=C1/C(=C/c2ccc(O)c(O)c2)Oc2cc(O)cc(O)c21 | % | 13
O=c1cc(-c2ccc(O)cc2)oc2cc(O)c([C@@H]3O[C@H](CO)[C@@H](O)[C@H](O)[C@H]3O)c(O)c12 | % | 0.3
O=c1c(O)c(-c2ccc(O)cc2)oc2cc(O)cc(O)c12 | % | 18

###

System: PfUGT50
TEST_METHOD_NOTES: UDP-glucuronosyltransferase activity assay (HPLC) with recombinant PfUGT50
Type: biochemical, Perilla frutescens
APPLIED_CONDITIONS: standard reaction conditions
READOUT_KIND: glucuronosyl transfer activity to glycosyl acceptor substrate (in words)

COMPOUND | OBS_VALUE
O=c1c(-c2ccc(O)cc2)coc2cc(O)ccc12 [daidzein] | no activity
COc1cc(/C=C/CO)ccc1O [coniferyl alcohol] | no activity
Oc1ccc(C=Cc2cc(O)cc(O)c2)cc1 [resveratrol] | shows the activity
Oc1ccc([C@H]2OC[C@H]3[C@@H]2CO[C@@H]3c2ccc3c(c2)OCO3)cc1O [SC1, (+)-sesamin catechol 1] | shows the activity
O=c1cc(-c2ccc(O)cc2)oc2cc(O)c([C@@H]3O[C@H](CO)[C@@H](O)[C@H](O)[C@H]3O)c(O)c12 [isovitexin] | no activity
O=c1c(-c2ccc(O)cc2)coc2cc(O)cc(O)c12 [genistein] | no activity
O=C(O[C@@H]1Cc2c(O)cc(O)cc2O[C@@H]1c1cc(O)c(O)c(O)c1)c1cc(O)c(O)c(O)c1 [epigallocatechin gallate] | no activity
O=c1ccc2cc(O)c(O)cc2o1 [esculetin] | no activity
O=c1cc(-c2ccc(O)c(O)c2)oc2c([C@@H]3O[C@H](CO)[C@@H](O)[C@H](O)[C@H]3O)c(O)cc(O)c12 [orientin] | no activity

###

Test system: S1UGT
TEST_METHOD_NOTES: UDP-glucuronosyltransferase activity assay (HPLC) with recombinant S1UGT
Assay type: biochemical, Scutellaria laeteviolacea v. yakusimensis
APPLIED_CONDITIONS: 100 μM glycosyl acceptor substrate, 2 mM UDP-glucuronic acid, pH 7.5, 30° C., 30 minutes
READOUT_KIND: relative activity to each substrate, taking the activity to scutellarein as 100%

COMPOUND | OBS_VALUE
O=c1cc(-c2ccc(O)c(O)c2)oc2cc(O)cc(O)c12 [luteolin] | 0.6%
O=c1c(O)c(-c2ccc(O)c(O)c2)oc2cc(O)cc(O)c12 [quercetin] | 1%
COc1ccc(-c2cc(=O)c3c(O)cc(O)cc3o2)cc1O [diosmetin] | 0.3%
O=c1cc(-c2ccccc2)oc2cc(O)c(O)c(O)c12 [baicalein] | 63%
COc1cc(-c2cc(=O)c3c(O)cc(O)cc3o2)ccc1O [chrysoeriol] | 0.02%
O=c1cc(-c2cc(O)c(O)c(O)c2)oc2cc(O)cc(O)c12 [tricetin] | 1.1%
O=C1C[C@@H](c2ccc(O)cc2)Oc2cc(O)cc(O)c21 [naringenin] | 6%
O=c1c(-c2ccc(O)cc2)coc2cc(O)ccc12 [daidzein] | 0.3%
O=c1cc(-c2ccc(O)cc2)oc2cc(O)cc(O)c12 [apigenin] | 3%
O=c1c(-c2ccc(O)cc2)coc2cc(O)cc(O)c12 [genistein] | 1%
O=c1c(O)c(-c2ccc(O)cc2)oc2cc(O)cc(O)c12 [kaempferol] | 14%
O=c1ccc2cc(O)c(O)cc2o1 [esculetin] | 0.3%

###

Test system: S1UGT
TEST_METHOD_NOTES: UDP-glucuronosyltransferase activity assay (HPLC) with recombinant S1UGT
Assay type: biochemical, Scutellaria laeteviolacea v. yakusimensis
APPLIED_CONDITIONS: standard reaction conditions
READOUT_KIND: glucuronosyl transfer activity to glycosyl acceptor substrate (in words)

COMPOUND | OBS_VALUE
Oc1ccc(C=Cc2cc(O)cc(O)c2)cc1 | shows the activity
O=c1cc(-c2ccc(O)cc2)oc2cc(O)c([C@@H]3O[C@H](CO)[C@@H](O)[C@H](O)[C@H]3O)c(O)c12 | no activity
O=c1c(O)c(-c2cc(O)c(O)c(O)c2)oc2cc(O)cc(O)c12 | shows the activity
O=c1cc(-c2ccc(O)c(O)c2)oc2c([C@@H]3O[C@H](CO)[C@@H](O)[C@H](O)[C@H]3O)c(O)cc(O)c12 | no activity
Oc1ccc(C2OCC3C(c4ccc(O)c(O)c4)OCC23)cc1O (single isomer, unassigned; (+)) [EC2, (+)-episesamin catechol 2] | shows the activity
Oc1ccc([C@H]2OC[C@H]3[C@@H]2CO[C@@H]3c2ccc3c(c2)OCO3)cc1O [SC1, (+)-sesamin catechol 1] | shows the activity
COc1cc(/C=C/CO)ccc1O | no activity
O=C(O[C@@H]1Cc2c(O)cc(O)cc2O[C@@H]1c1cc(O)c(O)c(O)c1)c1cc(O)c(O)c(O)c1 [epigallocatechin gallate] | no activity
O=C1/C(=C/c2ccc(O)c(O)c2)Oc2cc(O)cc(O)c21 | no activity
Oc1ccc([C@H]2OC[C@H]3[C@@H]2CO[C@@H]3c2ccc(O)c(O)c2)cc1O [SC2, (+)-sesamin catechol 2] | shows the activity

###

System: PfUGT50
TEST_METHOD_NOTES: UDP-glucuronosyltransferase activity assay (HPLC) with recombinant PfUGT50
Format: biochemical, Perilla frutescens
APPLIED_CONDITIONS: 100 μM glycosyl acceptor substrate, 2 mM UDP-glucuronic acid, pH 7.5, 30° C., 30 minutes
Items are presented alongside their recorded relative activity to each substrate, taking the activity to scutellarein as 100%.
READOUT_KIND: relative activity to each substrate, taking the activity to scutellarein as 100% (%)

MOLECULE | READING_UNIT | OBS_VALUE
O=c1c(O)c(-c2cc(O)c(O)c(O)c2)oc2cc(O)cc(O)c12 [myricetin] | % | 9
O=c1cc(-c2ccc(O)cc2)oc2cc(O)cc(O)c12 [apigenin] | % | 44
O=c1cc(-c2cc(O)c(O)c(O)c2)oc2cc(O)cc(O)c12 [tricetin] | % | 87.9
COc1cc(-c2cc(=O)c3c(O)cc(O)cc3o2)ccc1O [chrysoeriol] | % | 18
O=c1c(O)c(-c2ccc(O)c(O)c2)oc2cc(O)cc(O)c12 [quercetin] | % | 26

###

Tested on: AmUGTcg10
TEST_METHOD_NOTES: UDP-glucuronosyltransferase activity assay (HPLC) with recombinant AmUGTcg10
Type: biochemical, Antirrhinum majus
APPLIED_CONDITIONS: 100 μM glycosyl acceptor substrate, 2 mM UDP-glucuronic acid, pH 7.5, 30° C., 30 minutes
Items are presented alongside their recorded relative activity to each substrate, taking the activity to scutellarein as 100%.
READOUT_KIND: relative activity to each substrate, taking the activity to scutellarein as 100%

SMILES | SYSTEM_UNDER_TEST | OBS_VALUE
O=c1cc(-c2cc(O)c(O)c(O)c2)oc2cc(O)cc(O)c12 | AmUGTcg10 | 23.8%
O=C1/C(=C/c2ccc(O)c(O)c2)Oc2cc(O)cc(O)c21 | AmUGTcg10 | 2%
O=c1cc(-c2ccc(O)cc2)oc2cc(O)cc(O)c12 | AmUGTcg10 | 40%
O=c1c(O)c(-c2ccc(O)c(O)c2)oc2cc(O)cc(O)c12 | AmUGTcg10 | 4%
COc1cc(-c2cc(=O)c3c(O)cc(O)cc3o2)ccc1O | AmUGTcg10 | 18%
O=C1C[C@@H](c2ccc(O)cc2)Oc2cc(O)cc(O)c21 | AmUGTcg10 | 15%
COc1ccc(-c2cc(=O)c3c(O)cc(O)cc3o2)cc1O | AmUGTcg10 | 26%
O=c1cc(-c2ccc(O)c(O)c2)oc2cc(O)cc(O)c12 | AmUGTcg10 | 34%
O=c1cc(-c2ccccc2)oc2cc(O)c(O)c(O)c12 | AmUGTcg10 | 22%
O=c1c(O)c(-c2ccc(O)cc2)oc2cc(O)cc(O)c12 | AmUGTcg10 | 28%
